Documented %Inh across a set of molecules
# Test system: CLK3;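 also: KINOMEscan kinase panel screen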
# ASSAY_SETUP: concentration: 1 μM, replicates: in singlicate; n = 1
Report the figure in % without appending any unit label.

Observe how each entry below is paired with its result.
| MOLECULE | %Inh (%) |
| --- | --- |
| COc1ccc(CNC(=O)NC2CCN(c3ccnc(Nc4cc(OC)c(OC)c(OC)c4)n3)C2)cc1 (stereo not drawn) [GSK1379748] | 0 |
| CS(=O)(=O)c1ccc(-c2c(-c3ncn[nH]3)sc(N3CCOCC3)c2C#N)cc1 | 0 |

Asked: Dear colleague, I am looking for the recorded %Inh of the following molecule: CN1C(=O)C(Nc2ccc(Cl)c(C(=O)O)c2)=C(c2ccc(Cl)cc2)C1=O [SB-404290]
Given back: 25
